Parameter: Relative Luciferase Units (RLU), CD80 Cone 5.0 nM. Scope: all listed entries.
Molecular target: CD28 (Homo sapiens, UniProt P10747)
Assay: Jurkat/IL2 + CHO/OKT3 +/- PD-L1 reporter assay: PD-L1-dependent CD28 costimulation
Type: cell-based
Design: host or cells: Jurkat cells expressing an IL-2-luciferase reporter
Conditions: Table E13; Jurkat/IL2 + CHO/OKT3/PD-L1; 5.0 nM
experimental-readout: Relative Luciferase Units (RLU), CD80 Cone 5.0 nM

{"molecule": "T13R/Q33L/E35D/M47L/V68M/L85M (protein, UniProt P33681 35-288, looked up, variant T13R Q33L E35D M47L V68M L85M) T-lymphocyte activation …: VIHVTKEVKEVARLSCGHNVSVEELAQTRIYWLKDKKMVLTMMSGDLNIWPEYKNRTIFDITNNLSIMILALRPSDEGTYECVVMKYEKDAFKREHLAEVTLSVKADFPTPSISDFEIPTSNIRRIICSTSGGFPEPHLSWLENGEELNAINTTVSQDPETELYAVSSKLDFNMTTNHSFMCLIKYGHLRVNQTFNWNTTKQEHFPDNLLPSWAITLISVNGIFVICCLTYCFAPRCRERRRNERLRRESVRPV", "observed-measurement": 153}
{"molecule": "H18Y/E35D/V68M/L85M/R94Q (protein, UniProt P33681 35-288, looked up, variant H18Y E35D V68M L85M R94Q) T-lymphocyte activation …: VIHVTKEVKEVATLSCGYNVSVEELAQTRIYWQKDKKMVLTMMSGDMNIWPEYKNRTIFDITNNLSIMILALRPSDEGTYECVVMKYEKDAFKQEHLAEVTLSVKADFPTPSISDFEIPTSNIRRIICSTSGGFPEPHLSWLENGEELNAINTTVSQDPETELYAVSSKLDFNMTTNHSFMCLIKYGHLRVNQTFNWNTTKQEHFPDNLLPSWAITLISVNGIFVICCLTYCFAPRCRERRRNERLRRESVRPV", "observed-measurement": 195}
{"molecule": "T13R/Q33R/E35D/M38I/M47L/V68M (protein, UniProt P33681 35-288, looked up, variant T13R Q33R E35D M38I M47L V68M) T-lymphocyte activation …: VIHVTKEVKEVARLSCGHNVSVEELAQTRIYWRKDKKIVLTMMSGDLNIWPEYKNRTIFDITNNLSIMILALRPSDEGTYECVVLKYEKDAFKREHLAEVTLSVKADFPTPSISDFEIPTSNIRRIICSTSGGFPEPHLSWLENGEELNAINTTVSQDPETELYAVSSKLDFNMTTNHSFMCLIKYGHLRVNQTFNWNTTKQEHFPDNLLPSWAITLISVNGIFVICCLTYCFAPRCRERRRNERLRRESVRPV", "observed-measurement": 152}
{"molecule": "E35D/M47V/V68M/L85M (protein, UniProt P33681 35-288, looked up, variant E35D M47V V68M L85M) T-lymphocyte activation …: VIHVTKEVKEVATLSCGHNVSVEELAQTRIYWQKDKKMVLTMMSGDVNIWPEYKNRTIFDITNNLSIMILALRPSDEGTYECVVMKYEKDAFKREHLAEVTLSVKADFPTPSISDFEIPTSNIRRIICSTSGGFPEPHLSWLENGEELNAINTTVSQDPETELYAVSSKLDFNMTTNHSFMCLIKYGHLRVNQTFNWNTTKQEHFPDNLLPSWAITLISVNGIFVICCLTYCFAPRCRERRRNERLRRESVRPV", "observed-measurement": 1167}
{"molecule": "V22D/E24D/E35D/M47L/V68M (protein, CD80 v383 ECD) VIHVTKEVKEVATLSCGHNVSDEDLAQTRIYWQKDKKMVLTMMSGDLNIWPEYKNRTIFDITNNLSIMILALRPSDEGTYECVVLKYEKDAFKREHLAEVTLSVKADFPTPSISDFETPTSNIRRIICSTSGGFPEPHLSWLENGEELNAINTTVSQDPETELYAVSSKLDFNMTTNHSFMCLIKYGHLRVNQTFNWNTTKQEHFPDN", "observed-measurement": 974}
{"molecule": "T13R/Q27L/Q33L/E35D/T41S/M47V/N48KN68M/L85M (protein) VIHVTKEVKEVARLSCGHNVSVEELALTRIYWLKDKKMVLSMMSGDVKIWPEYKNRTIFDITNNLSIMILALRPSDEGTYECVVMKYEKDAFKREHLAEVTLSVKAD", "observed-measurement": 170}
{"molecule": "H18Y/E35D/V68M/A71G/R94Q/E95V (protein, UniProt P33681 35-288, looked up, variant H18Y E35D V68M A71G R94Q E95V, Fc fusion) T-lymphocyte activation …: VIHVTKEVKEVATLSCGYNVSVEELAQTRIYWQKDKKMVLTMMSGDMNIWPEYKNRTIFDITNNLSIMILGLRPSDEGTYECVVLKYEKDAFKQVHLAEVTLSVKADFPTPSISDFEIPTSNIRRIICSTSGGFPEPHLSWLENGEELNAINTTVSQDPETELYAVSSKLDFNMTTNHSFMCLIKYGHLRVNQTFNWNTTKQEHFPDNLLPSWAITLISVNGIFVICCLTYCFAPRCRERRRNERLRRESVRPV", "observed-measurement": 183}
{"molecule": "T13R/E35D/M47L/V68M (protein, UniProt P33681 35-288, looked up, variant T13R E35D M47L V68M) T-lymphocyte activation …: VIHVTKEVKEVARLSCGHNVSVEELAQTRIYWQKDKKMVLTMMSGDLNIWPEYKNRTIFDITNNLSIMILALRPSDEGTYECVVLKYEKDAFKREHLAEVTLSVKADFPTPSISDFEIPTSNIRRIICSTSGGFPEPHLSWLENGEELNAINTTVSQDPETELYAVSSKLDFNMTTNHSFMCLIKYGHLRVNQTFNWNTTKQEHFPDNLLPSWAITLISVNGIFVICCLTYCFAPRCRERRRNERLRRESVRPV", "observed-measurement": 1021}
{"molecule": "E35D/M47L/Y53F/V68M/A71G/K93R/E95V (protein, UniProt P33681 35-288, looked up, variant E35D M47L Y53F V68M A71G K93R E95V) T-lymphocyte activation …: VIHVTKEVKEVATLSCGHNVSVEELAQTRIYWQKDKKMVLTMMSGDLNIWPEFKNRTIFDITNNLSIMILGLRPSDEGTYECVVLKYEKDAFRRVHLAEVTLSVKADFPTPSISDFEIPTSNIRRIICSTSGGFPEPHLSWLENGEELNAINTTVSQDPETELYAVSSKLDFNMTTNHSFMCLIKYGHLRVNQTFNWNTTKQEHFPDNLLPSWAITLISVNGIFVICCLTYCFAPRCRERRRNERLRRESVRPV", "observed-measurement": 1546}
